Read-out: CD38, CD38 (gene 952)
Protocol Details: BSK_SAg_CD38: BioMAP Diversity Plus: SAg Assay for CD38 Biomarker Activity (AID 2283087)
Test Parameters: primary human HUVEC with PBMC; actives raise or lower the signal
Active and inactive are the calls of the source. How the source made its calls: active means hit-call score of the fitted dose curve at least 0.9, where 1 is the maximum; inactive means score below 0.9.
Answer with one of the outcomes given here: active, inactive

Example results:
QUERY: Hi team, can someone confirm the assay call for O=C(O)C(F)(F)C(F)(F)C(F)(F)C(=O)O ?
RESULT: inactive

QUERY: So what was the verdict on O=C(O)CCC(F)(F)C(F)(F)C(F)(F)C(F)(F)C(F)(F)C(F)(F)C(F)(F)F in this test?
RESULT: inactive

QUERY: Each compound tested received a call. Report the one for CC1=CC2C3C=CC(C3)C2C1C (centres undefined) .
RESULT: inactive

QUERY: Hi, do you know how CN(C(=O)C(F)(F)C(F)(F)C(F)(F)F)[Si](C)(C)C came out in this test?
RESULT: inactive

QUERY: Assay outcome for Cc1ccc(O)c(-n2nc3ccccc3n2)c1 : what was it?
RESULT: inactive

QUERY: GET /call?item= Brc1nc2ccccc2s1 returns the recorded outcome of this test.
RESULT: inactive

QUERY: Outcome? FC(F)(F)C(F)(F)C(F)(F)C(F)(F)C(F)(F)C(F)(F)CC[Si](Cl)(Cl)Cl
RESULT: inactive

QUERY: Recorded test call requested for CCOC(C=C(C)CCC=C(C)C)OCC
RESULT: inactive

QUERY: Just curious, what result did OCCCCC(F)(F)C(F)(F)C(F)(F)C(F)(F)F get here?
RESULT: inactive

QUERY: What did this assay record as the result for C[C@]12CC[C@H]3C(=CCc4cc(O)ccc43)[C@@H]1CCC2=O ?
RESULT: inactive

***
QUERY: Record lookup: outcome of this test for O=C=NCc1cccc(CN=C=O)c1 ?
RESULT: inactive

QUERY: Give the logged outcome of this assay for the following compound: OCC(F)(F)C(F)(F)C(F)(F)CO
RESULT: inactive

QUERY: Please indicate how the test categorized CCOC(=O)CC(=O)C(F)(F)C(F)(F)F .
RESULT: inactive

QUERY: Field: outcome | Entry: CO[Si](C)(CCC(F)(F)C(F)(F)C(F)(F)C(F)(F)C(F)(F)C(F)(F)F)OC
RESULT: inactive

QUERY: Which outcome did this test record for the compound NC(=O)C(F)(F)C(F)(F)C(F)(F)F ?
RESULT: inactive

QUERY: What is the recorded call for this compound in the test? O=C(c1ccccc1)c1ccc(O)cc1O
RESULT: active

QUERY: Fill in: this test's call for Cc1cnccn1 is ___
RESULT: inactive

QUERY: Record request — test call for O=C(Cl)C(F)(F)C(F)(F)C(F)(F)C(F)(F)C(F)(F)C(F)(F)C(F)(F)F
RESULT: inactive

QUERY: What was the test verdict on O=C(Cl)C(F)(F)C(F)(F)C(F)(F)C(F)(F)C(F)(F)C(F)(F)F ?
RESULT: inactive

QUERY: Record request — test call for O=S(=O)(OCC(F)(F)F)C(F)(F)C(F)(F)C(F)(F)C(F)(F)F
RESULT: inactive

QUERY: Status in this test for NC(=O)C(F)(F)C(F)(F)C(F)(F)C(F)(F)C(F)(F)C(F)(F)C(F)(F)F ?
RESULT: inactive

QUERY: State the result this test recorded for CCN(CC)c1ccc(N=Nc2ccccc2)cc1 .
RESULT: active

QUERY: Would you mind telling me which call this test gave OCC(O)CC(F)(F)C(F)(F)C(F)(F)C(F)(F)C(F)(F)C(F)(F)C(F)(F)C(F)(F)F (centres undefined) ?
RESULT: inactive

QUERY: Any idea what this test logged for CC(C)(C)c1cc(CCC(=O)NCCCCCCNC(=O)CCc2cc(C(C)(C)C)c(O)c(C(C)(C)C)c2)cc(C(C)(C)C)c1O ?
RESULT: inactive

QUERY: # outcome recorded in this test, key = NCC(F)(F)C(F)(F)C(F)(F)C(F)(F)C(F)(F)C(F)(F)F
RESULT: inactive

QUERY: Outcome? CCN(CC)c1ccc2c(c1)Oc1cc(N(CC)CC)ccc1C21OC(=O)c2ccccc21
RESULT: inactive
